Recorded growth for the following compounds
Tested on: SF-268 CNS
Assay: NCI-60 one-dose screen, 48 h (100 = growth as untreated, 0 = no growth, -100 = all killed)
Details: 10 µM unless noted
This is part of a sample that, as a whole, favours compounds with a hit. Of some 83,000 tested, about 20% had one in any assay. Activity calls are given as the source filed them. How the source made its calls: active means growth percent below 10; inactive means the rest.

Below: 3 compounds and their reported growth.
COc1ccc(-c2c3c(cn2Cc2cccc(OC)c2)-c2oncc2CCC3)cc1 :: 99.5% (inactive)
CCN(CC)CCOc1ccc(C(=C(C)Cc2ccc(OC)cc2)c2ccc(OCCN(CC)CC)cc2)cc1 :: 70% (inactive)
CC(=O)N(O)CCCCCNC(=O)CCC(=O)N(O)CCCCCNC(=O)CCC(=O)N(O)CCCCCN(CCCCCCCCCC[P+](c1ccccc1)(c1ccccc1)c1ccccc1)CCCCCCCCCC[P+](c1ccccc1)(c1ccccc1)c1ccccc1 :: 16.2% (inactive)

Please turn your attention to the following entry.
query: Using the record for NS(=O)(=O)c1ccc(Nc2nc(N/N=C/c3ccc4c(c3)OCO4)nc(Nc3ccccc3)n2)cc1 , report its growth.
result: 42.6% (inactive)
